- Test system: secreted APP
- Protocol description: ELISA for secreted APP in SHSY5Y cells
- Assay type: cell-based, human
- Experimental setup: Dose 20 uM, 16 hours
- Method: An enzyme-linked immunosorbent assay was developed to detect secreted APP in SHSY5Y cells, a human neuroblastoma cell line. The purpose of the screen was to discover small molecules that inhibit APP protein synthesis in SHSY5Y cells. […] Enzyme activity was assessed by incubation with […] TMB substrate solution (Moss no. TMB-US) for 20 minutes. […] Optical density was read at 450 nm on Wallac Victor2 plate reader. […] Of the 144 MES compounds screened, 12 inhibited secreted APP as determined by ELISA. […]
Documented APP Secretion by SH-SY-5Y Cells across a set of molecules
Field: numeric (% vehicle control). Do not append units.

Some molecules with recorded APP Secretion by SH-SY-5Y Cells:
[
  {
    "Molecule": "CN(C)CC[C@]1(C)C(=O)N(C)c2ccc(O)cc21",
    "Target of assay": "secreted APP",
    "Result unit": "% vehicle control",
    "APP Secretion by SH-SY-5Y Cells": 102.7
  },
  {
    "Molecule": "COc1ccc2c(c1)C1(C)CCSC1N2C (stereo not shown)",
    "Target of assay": "secreted APP",
    "Result unit": "% vehicle control",
    "APP Secretion by SH-SY-5Y Cells": 111.15
  },
  {
    "Molecule": "COc1ccc2c(c1)C1(C)CCN(C)C1N2Cc1ccccc1 (stereo not shown)",
    "Target of assay": "secreted APP",
    "Result unit": "% vehicle control",
    "APP Secretion by SH-SY-5Y Cells": 102.95
  },
  {
    "Molecule": "CN1CC[C@@]2(C)c3cc(O)ccc3N(C)C2NC1=O (single isomer, unassigned; (-))",
    "Target of assay": "secreted APP",
    "Result unit": "% vehicle control",
    "APP Secretion by SH-SY-5Y Cells": 22.17
  },
  {
    "Molecule": "COc1ccc2c(c1)[C@]1(C)CCN(Cc3ccccc3)C1N2C (stereo partly shown)",
    "Target of assay": "secreted APP",
    "Result unit": "% vehicle control",
    "APP Secretion by SH-SY-5Y Cells": 133.4
  },
  {
    "Molecule": "COc1ccc2c(c1)[C@]1(C)CCN(C)C1N2Cc1ccccc1 (single isomer, unassigned) [MES 9202]",
    "Target of assay": "secreted APP",
    "Result unit": "% vehicle control",
    "APP Secretion by SH-SY-5Y Cells": 110.05
  },
  {
    "Molecule": "COc1ccc2c(c1)[C@@](C)(CCN(C)C)C(=O)N2C",
    "Target of assay": "secreted APP",
    "Result unit": "% vehicle control",
    "APP Secretion by SH-SY-5Y Cells": 98.95
  },
  {
    "Molecule": "COc1ccc2c(c1)[C@@](C)(CC[N+](C)(C)C)C(O)N2Cc1ccccc1.[I-] (stereo partly shown)",
    "Target of assay": "secreted APP",
    "Result unit": "% vehicle control",
    "APP Secretion by SH-SY-5Y Cells": 101.65
  },
  {
    "Molecule": "C[C@]12CCN(Cc3ccccc3)C1N(Cc1ccccc1)c1ccc(O)cc12 (stereo partly shown)",
    "Target of assay": "secreted APP",
    "Result unit": "% vehicle control",
    "APP Secretion by SH-SY-5Y Cells": 23.57
  },
  {
    "Molecule": "COc1ccc2c(c1)[C@@](C)(CC#N)C(=O)N2C",
    "Target of assay": "secreted APP",
    "Result unit": "% vehicle control",
    "APP Secretion by SH-SY-5Y Cells": 120.5
  }
]

Please turn your attention to the following entry.
Please look up its APP Secretion by SH-SY-5Y Cells: CN1C(=O)C(=O)c2ccccc21
96.65

###

Documented APP Toxicity SH-SY-5Y Cells (MTS assay) across a set of compounds
- Test system: SH-SY-5Y Cells
- Protocol description: MTS toxicity assay in SHSY5Y cells
- Assay type: cell-based, human
- Experimental setup: Dose 6 uM

[
  {
    "Compound": "CC1C(=O)N(C)c2ccc(O)cc21 (centres unmarked) [MES 9292, 1,3-Dimethyl-5-hydroxyoxindole]",
    "Target of assay": "SH-SY-5Y Cells",
    "Reported value": "103.75 % vehicle control"
  },
  {
    "Compound": "COC(=O)NCCC1C(=O)N(Cc2ccccc2)c2ccc(OC)cc21 (centres unmarked) [MES 9317]",
    "Target of assay": "SH-SY-5Y Cells",
    "Reported value": "97.23 % vehicle control"
  },
  {
    "Compound": "COc1ccc2c(c1)[C@]1(C)CCNC1N2 (some centres unmarked) [MES 9243]",
    "Target of assay": "SH-SY-5Y Cells",
    "Reported value": "98.4 % vehicle control"
  },
  {
    "Compound": "CC(Br)C(=O)N(C)c1ccc(O)cc1 (centres unmarked) [MES 9291, Propionanilde]",
    "Target of assay": "SH-SY-5Y Cells",
    "Reported value": "99.87 % vehicle control"
  }
]

Please look up its APP Toxicity SH-SY-5Y Cells (MTS assay): CN1CC[C@@]2(C)c3cc(O)ccc3N(C)C2NC1=O (single isomer, unassigned; (-)) [MES 9205]
97.73 % vehicle control

###

Documented APP Toxicity SH-SY-5Y Cells (MTS assay) across a set of molecules
- Tested on: SH-SY-5Y Cells
- Protocol description: MTS toxicity assay in SHSY5Y cells
- Assay type: cell-based, human
- Experimental setup: Dose 6 uM
- Experimental: An enzyme-linked immunosorbent assay was developed to detect secreted APP in SHSY5Y cells, a human neuroblastoma cell line. The purpose of the screen was to discover small molecules that inhibit APP protein synthesis in SHSY5Y cells. […] Enzyme activity was assessed by incubation with […] TMB substrate solution (Moss no. TMB-US) for 20 minutes. […] Optical density was read at 450 nm on Wallac Victor2 plate reader. […] Of the 144 MES compounds screened, 12 inhibited secreted APP as determined by ELISA. […]
Field: numeric (% vehicle control). Do not append units.

[
  {
    "Molecule": "CN(C)Cc1cc2c(cc1O)[C@]1(C)CCN(C)C1N2C (some centres unmarked) [MES 9266]",
    "Target of assay": "SH-SY-5Y Cells",
    "Property": "APP Toxicity SH-SY-5Y Cells (MTS assay)",
    "Reported value": 97.75
  }
]

Please look up its APP Toxicity SH-SY-5Y Cells (MTS assay): COc1ccc2c(c1)C1(c3ccccc3)CCNC1N2C (centres unmarked) [MES 9305]
96.73

Please look up its APP Toxicity SH-SY-5Y Cells (MTS assay): C/N=C(\C)c1cccc(OC)c1 [MES 9270]
101.1

Please look up its APP Toxicity SH-SY-5Y Cells (MTS assay): CNC(C)c1cccc(OC)c1 (centres unmarked) [MES 9271]
99.475

Please look up its APP Toxicity SH-SY-5Y Cells (MTS assay): COc1ccc2c(c1)[C@](C)(CCN)C(=O)N2C.Cl [MES 9314]
100.85

###

- Tested on: SH-SY-5Y Cells
- Protocol description: MTS toxicity assay in SHSY5Y cells
- Assay type: cell-based, human
- Experimental setup: Dose 20 uM
Property: APP Toxicity SH-SY-5Y Cells (MTS assay) (% vehicle control)
Field: numeric (% vehicle control). Do not append units.

Some molecules with recorded APP Toxicity SH-SY-5Y Cells (MTS assay):
[
  {
    "Molecule": "COc1ccc2c(c1)[C@@]1(C)CCN(C)C1N2Cc1ccccc1 (single isomer, unassigned) [MES 9203]",
    "APP Toxicity SH-SY-5Y Cells (MTS assay) / % vehicle control": 98.83
  },
  {
    "Molecule": "COc1ccc2c(c1)C1(C)CCN(C)C1N2 (stereo not drawn) [MES 9201]",
    "APP Toxicity SH-SY-5Y Cells (MTS assay) / % vehicle control": 98.25
  },
  {
    "Molecule": "C[C@]12CCN(Cc3ccccc3)C1N(Cc1ccccc1)c1ccc(O)cc12 (stereo partly drawn) [MES 9238]",
    "APP Toxicity SH-SY-5Y Cells (MTS assay) / % vehicle control": 31.63
  },
  {
    "Molecule": "COc1ccc2[nH]c3c(c2c1)CCN(C)C3 [MES 9316]",
    "APP Toxicity SH-SY-5Y Cells (MTS assay) / % vehicle control": 98.75
  },
  {
    "Molecule": "COc1ccc2[nH]cc(CCN)c2c1.Cl [MES 9321]",
    "APP Toxicity SH-SY-5Y Cells (MTS assay) / % vehicle control": 99.45
  }
]

Please look up its APP Toxicity SH-SY-5Y Cells (MTS assay): CN1CC[C@]2(C)c3cc(O)ccc3N(Cc3ccccc3)C12 (stereo partly drawn) [MES 9215]
12.9

Please look up its APP Toxicity SH-SY-5Y Cells (MTS assay): CN1c2ccc(OC3CCCCO3)cc2[C@]2(C)CCNC12 (single isomer, unassigned; (-)) [MES 9320, (−)-O-Tetrahydropyranyl-N-1-noreseroline]
28

Please look up its APP Toxicity SH-SY-5Y Cells (MTS assay): COc1ccc2c(c1)C1(C)CCN(C)C1N2Cc1ccccc1 (stereo not drawn) [MES 9199]
101.9

Please look up its APP Toxicity SH-SY-5Y Cells (MTS assay): Br.CC1=C(c2ccc(O)cc2)CN2CCC[C@H]2C1.O [MES 9330]
97.95

src = patent US8691864B2
